Assay: in vitro
Conditions: human, pH 3.5
Description: […]
measurement-type: IC50 at 60 min (µg/mL)
Reply with just the number (in µg/mL).

OCl [HOCl, hypochlorous acid, reference compound] | 47

Okay, now this molecule:
stdin: # get_value(readout='IC50 at 60 min', item= "O=S(=O)(O)CCN(Cl)Cl" )
stdout: 1440
